Collected Post-emergence efficacy against ALOMY in % values appear next to each entry.
system: Alopecurus myosuroides (ALOMY); assay: E. Herbicidal post-emergence efficacy, ALOMY; type: in vivo; details: application rate 320 g/ha
Value kind: Post-emergence efficacy against ALOMY in %

1) O=S(=O)(CCC(F)(F)F)Oc1ccccc1Oc1ncc(Cl)cn1 : 90%
2) O=S(=O)(CC1CC1)Oc1ccccc1Oc1ncc(Cl)cn1 : 80%
3) O=S(=O)(CCCC(F)F)Oc1c(F)cccc1Oc1ncc(Cl)cn1 : 80%
4) CC(C)CS(=O)(=O)Oc1ccccc1Oc1ncc(Cl)cn1 : 90%
5) O=S(=O)(CCCCl)Oc1ccccc1Oc1ncc(F)cn1 : 90%

* * *

// values below are reported Pre-emergence efficacy against LOLRI
tested on: Lolium rigidum (LOLRI); experiment: C. Herbicidal pre-emergence efficacy, LOLRI; format: in vivo; conditions: 80 g/ha, scored after about 3 weeks
Value kind: Pre-emergence efficacy against LOLRI (%)

1) O=S(=O)(CCCC(F)(F)F)Oc1c(F)cccc1Oc1ncc(F)cn1 : 100
2) O=S(=O)(CCCC(F)(F)F)Oc1ccccc1Oc1ncc(Cl)cn1 : 90
3) CCCCS(=O)(=O)Oc1ccccc1Oc1ncc(Cl)cn1 : 80
4) O=S(=O)(CCCC(F)F)Oc1c(F)cccc1Oc1ncc(Cl)cn1 : 100
5) O=S(=O)(CCC(F)(F)F)Oc1c(F)cccc1Oc1ncc(Cl)cn1 : 90
6) O=S(=O)(CCCC(F)(F)F)Oc1c(F)cccc1Oc1ncc(Cl)cn1 : 80
7) O=S(=O)(CCC(F)(F)F)Oc1c(F)cccc1Oc1ncc(F)cn1 : 90

* * *

test system: Amaranthus retroflexus (AMARE); assay: A. Herbicidal pre-emergence efficacy, AMARE; format: in vivo; settings: 80 g/ha
Listing of entries alongside the reported Pre-emergence efficacy against AMARE in %.
Value kind: Pre-emergence efficacy against AMARE in % (%)

1) CCCCS(=O)(=O)Oc1ccccc1Oc1ncc(Cl)cn1 : 100
2) O=S(=O)(CCCCl)Oc1ccccc1Oc1ncc(F)cn1 : 100
3) O=S(=O)(CC1CC1)Oc1ccccc1Oc1ncc(Cl)cn1 : 90
4) COCCS(=O)(=O)Oc1c(F)cccc1Oc1ncc(Cl)cn1 : 90
5) Cc1cccc(Oc2ncc(Cl)cn2)c1OS(=O)(=O)CCCC(F)(F)F : 100
6) Cc1cccc(OS(=O)(=O)CCCCl)c1Oc1ncc(Cl)cn1 : 100
7) O=S(=O)(CCCCl)Oc1c(F)cccc1Oc1ncc(Cl)cn1 : 100
8) CCCS(=O)(=O)Oc1ccccc1Oc1ncc(Cl)cn1 : 100
9) O=S(=O)(CCCCl)Oc1ccccc1Oc1ncc(Cl)cn1 : 100
10) O=S(=O)(CCCC(F)(F)F)Oc1c(F)cccc1Oc1ncc(F)cn1 : 100

* * *

tested on: Polygonum convolvulus (POLCO); test: C. Herbicidal pre-emergence efficacy, POLCO; assay type: in vivo; conditions: 320 g/ha, scored after about 3 weeks
Overview of recorded Pre-emergence efficacy against POLCO for various compounds
Value kind: Pre-emergence efficacy against POLCO (%)

1) Cc1cccc(Oc2ncc(Cl)cn2)c1OS(=O)(=O)CCCCl : 80
2) O=S(=O)(CCCC(F)(F)F)Oc1c(F)cccc1Oc1ncc(Br)cn1 : 100
3) O=S(=O)(CCCCl)Oc1ccccc1Oc1ncc(F)cn1 : 100
4) O=S(=O)(CCCCl)Oc1ccccc1Oc1ncc(Cl)cn1 : 100
5) O=S(=O)(CCC(F)=C(F)F)Oc1c(Cl)cccc1Oc1ncc(Cl)cn1 : 90

* * *

system: Veronica persica (VERPE); test: B. Herbicidal post-emergence efficacy, VERPE; type: in vivo; settings: 320 g/ha
Documented Post-emergence efficacy against VERPE across a set of compounds
Value kind: Post-emergence efficacy against VERPE

1. C=CCCS(=O)(=O)Oc1c(F)cccc1Oc1ncc(Cl)cn1 : 90%
2. N#Cc1cccc(Oc2ncc(Cl)cn2)c1OS(=O)(=O)CCCCl : 90%
3. O=S(=O)(CCCCl)Oc1c(F)cccc1Oc1ncc(Cl)cn1 : 100%
4. O=S(=O)(CCCC(F)(F)F)Oc1c(Br)cccc1Oc1ncc(Cl)cn1 : 100%
5. O=S(=O)(CCCC(F)(F)C(F)(F)F)Oc1c(F)cccc1Oc1ncc(Cl)cn1 : 100%
6. O=S(=O)(Oc1ccccc1Oc1ncc(Cl)cn1)C1CC1 : 100%
7. O=S(=O)(CCC(F)(F)F)Oc1c(Br)cccc1Oc1ncc(Cl)cn1 : 90%
8. N#Cc1cc(Cl)cnc1Oc1ccccc1OS(=O)(=O)CCCCl : 90%
9. O=S(=O)(CCCC(F)(F)F)Oc1c(F)cccc1Oc1ncc(Br)cn1 : 90%

* * *

Pre-emergence efficacy against ECHCG reference
System: Echinochloa crus-galli (ECHCG)
Assay: A. Herbicidal pre-emergence efficacy, ECHCG
Type: in vivo
Settings: 320 g/ha; scored visually after about 3 weeks vs untreated controls
Description: Seeds of mono- and dicotyledonous weed plants were placed in plastic pots in sandy loam soil (doubly sown with one species each of mono- or dicotyledonous weed plants per pot) and covered with soil. […] After about 3 weeks, the efficacy of the preparations was scored visually in comparison with untreated controls as percentages. […]
Value kind: Pre-emergence efficacy against ECHCG

1) O=S(=O)(CCCC(F)(F)F)Oc1c(Br)cccc1Oc1ncc(F)cn1 : 100%
2) O=S(=O)(CCCC(F)(F)C(F)(F)F)Oc1c(F)cccc1Oc1ncc(Cl)cn1 : 90%
3) CCCS(=O)(=O)Oc1ccccc1Oc1ncc(Cl)cn1 : 100%

* * *

Measured Post-emergence efficacy against KCHSC in % accompanies every entry in the list below.
system: Kochia scoparia (KCHSC); assay: B. Herbicidal post-emergence efficacy, KCHSC; type: in vivo; details: 320 g/ha, rated visually after about 3 weeks
Value kind: Post-emergence efficacy against KCHSC in %

1. O=S(=O)(CCC(F)(F)F)Oc1ccccc1Oc1ncc(Cl)cn1 : 90%
2. O=S(=O)(CCCC(F)(F)C(F)(F)F)Oc1c(Br)cccc1Oc1ncc(Cl)cn1 : 100%
3. Cc1cccc(Oc2ncc(Cl)cn2)c1OS(=O)(=O)CCCC(F)(F)C(F)(F)F : 100%
4. O=S(=O)(CCCC(F)(F)F)Oc1c(F)cccc1Oc1ncc(Br)cn1 : 90%
5. O=S(=O)(CCCCCl)Oc1ccccc1Oc1ncc(Cl)cn1 : 100%
6. O=S(=O)(Oc1ccccc1Oc1ncc(Cl)cn1)C1CC1 : 100%
7. O=S(=O)(CCCC(F)(F)F)Oc1ccccc1Oc1ncc(Cl)cn1 : 90%
8. O=S(=O)(CCC(F)(F)F)Oc1c(Cl)cccc1Oc1ncc(Cl)cn1 : 90%
9. O=S(=O)(CCC(F)(F)F)Oc1c(Cl)cccc1Oc1ncc(Br)cn1 : 100%
10. CCCCCS(=O)(=O)Oc1ccccc1Oc1ncc(Cl)cn1 : 100%
11. O=S(=O)(CCCCl)Oc1ccccc1Oc1ncc(Cl)cn1 : 100%
12. Cc1cccc(Oc2ncc(F)cn2)c1OS(=O)(=O)CCC(F)(F)F : 90%
13. O=S(=O)(CCCC(F)F)Oc1c(F)cccc1Oc1ncc(Cl)cn1 : 90%
14. O=S(=O)(CCCC(F)(F)F)Oc1c(Cl)cccc1Oc1ncc(Cl)cn1 : 90%
15. CCCS(=O)(=O)Oc1ccccc1Oc1ncc(Cl)cn1 : 90%
16. O=S(=O)(CCC(F)(F)F)Oc1c(Br)cccc1Oc1ncc(Cl)cn1 : 100%
17. O=S(=O)(CCCCl)Oc1ccccc1Oc1ncc(F)cn1 : 100%
18. O=S(=O)(CC1CC1)Oc1ccccc1Oc1ncc(Cl)cn1 : 100%
19. O=S(=O)(CCC(F)(F)F)Oc1c(F)cccc1Oc1ncc(Cl)cn1 : 90%
20. N#Cc1cc(Cl)cnc1Oc1ccccc1OS(=O)(=O)CCCCl : 90%
21. O=[N+]([O-])c1cnc(Oc2ccccc2OS(=O)(=O)CCCCl)c(F)c1 : 90%
22. O=S(=O)(CCC(F)(F)F)Oc1c(F)cccc1Oc1ncc(F)cn1 : 100%
23. O=S(=O)(CCCCl)Oc1cccc(F)c1Oc1ncc(Cl)cn1 : 90%

* * *

Below, each entry is listed alongside its reported Pre-emergence efficacy against ECHCG.
test system: Echinochloa crus-galli (ECHCG); experiment: A. Herbicidal pre-emergence efficacy, ECHCG; assay type: in vivo; conditions: 1280 g/ha; scored visually after about 3 weeks vs untreated controls
Value kind: Pre-emergence efficacy against ECHCG

1) N#Cc1cccc(Oc2ncc(Cl)cn2)c1OS(=O)(=O)CC1CC(F)(F)C1 : 90%
2) Cc1cccc(OS(=O)(=O)CCCCl)c1Oc1ncc(Cl)cn1 : 100%
3) O=S(=O)(Oc1ccccc1Oc1ncc(Cl)cn1)C1CCCC1 : 90%
4) O=S(=O)(CCCC(F)F)Oc1c(F)cccc1Oc1ncc(Cl)cn1 : 100%
5) O=S(=O)(CCCC(F)(F)F)Oc1c(F)cccc1Oc1ncc(Cl)cn1 : 90%
6) CCS(=O)(=O)Oc1ccccc1Oc1ncc(Cl)cn1 : 100%
7) O=S(=O)(CCCCl)Oc1ccccc1Oc1ncc(F)cn1 : 100%
8) CS(=O)(=O)Oc1ccccc1Oc1ncc(Cl)cn1 : 100%

Taken from patent US20240174618A1.
